target: mutated isocitrate dehydrogenase (mIDH) protein, LN229 R132H cells (Homo sapiens (Human), UniProt O75874, R132H); assay: Mutant IDH1 cellular assay (2-HG in medium of LN229 R132H cells); details: 2-HG levels in medium, 24 hours
Sequence (O75874 whole entry R132H): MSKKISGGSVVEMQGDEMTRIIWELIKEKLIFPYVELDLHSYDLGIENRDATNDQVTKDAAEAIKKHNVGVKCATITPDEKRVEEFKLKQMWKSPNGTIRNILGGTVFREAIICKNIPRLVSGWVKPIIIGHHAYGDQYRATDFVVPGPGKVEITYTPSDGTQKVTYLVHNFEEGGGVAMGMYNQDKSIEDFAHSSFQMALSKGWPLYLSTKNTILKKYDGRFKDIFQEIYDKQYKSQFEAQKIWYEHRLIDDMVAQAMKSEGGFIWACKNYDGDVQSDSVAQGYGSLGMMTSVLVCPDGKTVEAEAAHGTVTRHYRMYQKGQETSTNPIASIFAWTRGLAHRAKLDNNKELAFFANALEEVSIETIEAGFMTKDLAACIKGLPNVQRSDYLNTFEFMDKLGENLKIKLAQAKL
readout: IC50 (nM)

Examples with their reported IC50 follow.
| molecule | unit-label | IC50 |
| --- | --- | --- |
| Cc1cc2c(cc1C(=O)O)nc(Cc1ccc(OC(F)(F)F)cc1)n2[C@H]1C[C@@H](C)CC(C)(C)C1 (stereo in doubt) | nM | 2600 |
| CC1(C)CC(n2c(Cc3ccc(OC(F)(F)F)cc3)nc3c(F)c(CCC(=O)O)ccc32)CC(C)(C)C1 | nM | 1800 |
| COc1cc2c(cc1CCC(=O)O)nc(Cc1ccc(OC(F)(F)F)cc1)n2[C@@H]1C[C@H](C)CC(C)(C)C1 (single isomer, unassigned) [Example 2-50-1] | nM | 3600 |
| COC(=O)c1cc2nc(Cc3ccc(OC(F)(F)F)cc3)n([C@H]3C[C@@H](C)CC(C)(C)C3)c2cc1C (single isomer, unassigned) [Example 2-18-1] | nM | 2600 |
| CC(C)Oc1cc2c(cc1C(=O)O)nc(Cc1ccc(OC(F)(F)F)cc1)n2[C@@H]1C[C@H](C)CC(C)(C)C1 (stereo in doubt) [Example 2-46] | nM | 1500 |
| COc1cc2c(cc1CCC(=O)O)nc(Cc1ccc(OC(F)(F)F)cc1)n2[C@@H]1C[C@H](C)CC(C)(C)C1 (racemic) [Example 2-50] | nM | 210 |
| C[C@H]1C[C@@H](n2c(Cc3ccc(C(C)(C)C)cc3)nc3cc(C(=O)O)ccc32)CC(C)(C)C1 (stereo in doubt) | nM | 2500 |
| Cc1cc2c(cc1CCC(=O)O)nc(Cc1ccc(OC(F)(F)F)cc1)n2[C@@H]1C[C@H](C)CC(C)(C)C1 (stereo in doubt) | nM | 280 |
| COc1cc2c(cc1C(=O)O)nc(Cc1ccc(OC(F)(F)F)cc1)n2[C@@H]1C[C@H](C)CC(C)(C)C1 (racemic) [Example 2-45] | nM | 160 |
| Cc1cc2c(cc1C(=O)O)nc(Cc1ccc(OC(F)(F)F)cc1)n2[C@@H]1C[C@H](C)CC(C)(C)C1 (stereo in doubt) [Example 2-44] | nM | 170 |

(1) C[C@H]1C[C@@H](n2c(Cc3ccc(C(F)(F)F)cc3)nc3cc(C(=O)O)ccc32)CC(C)(C)C1 (stereo in doubt)
(2) CC1(C)CC(n2c(Cc3ccc(OC(F)(F)F)cc3)nc3c(F)c(C(=O)O)ccc32)CC(C)(C)C1
(3) COC(=O)c1ccc2c(c1)nc(Cc1ccc(C(C)C)cc1)n2[C@H]1C[C@@H](C)CC(C)(C)C1 (racemic)
(4) COc1cc2c(cc1CCC(=O)O)nc(Cc1ccc(OC(F)(F)F)cc1)n2[C@H]1C[C@@H](C)CC(C)(C)C1 (stereo in doubt)
List from greatest to least IC50. Response format: the labels, sorted as the prompt asks. 3, 1, 2, 4
(3: 3000 nM, 1: 1900 nM, 2: 800 nM, 4: 380 nM)

(1) CC(C)Oc1cc2c(cc1C(=O)O)nc(Cc1ccc(OC(F)(F)F)cc1)n2[C@@H]1C[C@H](C)CC(C)(C)C1 (stereo in doubt) [Example 2-46-1]
(2) COC(=O)c1cc2nc(Cc3ccc(OC(F)(F)F)cc3)n([C@H]3C[C@@H](C)CC(C)(C)C3)c2cc1C (racemic) [Example 2-18]
Just tell me: smaller IC50 value, 1 or 2 ? // return label of chosen record 1
(1: 600 nM, 2: 1800 nM)

Origin of values: patent US10179123B2
